# TESTED ON: pre-existing anti-scFv903 antibodies in human serum H3 (human)
# PROTOCOL TEXT: competition ADA bridging ELISA
Quick reference for signal change in competition ELISA (% reduction in OD) among some binders
Enter your answer as a number in %; do not include the unit.

BINDER	OBSERVED VALUE
scFv 791 (scFv) scFv: MEIVMTQSPSTLSASLGDRVIITCQSSQSVYGNIWMAWYQQKSGKAPKLLIYQASKLASGVPSRFSGSGSGAEFSLTISSLQPDDFATYYCQGNFNTGDRYAFGQGTKLTVLGGGGGSGGGGSGGGGSGGGGSEVQLVESGGGLVQPGGSLRLSCTASGFTISRSYWICWVRQAPGKGLEWVACIYGDNDITPLYANWAKGRFPVSTDTSKNTVYLQMNSLRAEDTAVYYCARLGYADYAYDLWGQGTLVTVSS	-85
scFv 961 (scFv) scFv: EIVMTQSPSTLSASVGDRVIITCQASEIIHSWLAWYQQKPGKAPKLLIYLASTLASGVPSRFSGSGSGAEFTLTISSLQPDDFATYYCQNVYLASTNGANFGQGTKLTVLGGGGGSGGGGSGGGGSGGGGSEVQLVESGGGSVQPGGSLRLSCTASGFSLTDYYYMTWVRQAPGKGLEWVGFIDPDDDPYYATWAKGRFTISRDTSKNTVYLQMNSLRAEDTATYYCAGGDHNSGWGLDIWGQGTTVTVSS	-2
scFv 903 (scFv) scFv: EIVMTQSPSTLSASVGDRVIITCQASEIIHSWLAWYQQKPGKAPKLLIYLASTLASGVPSRFSGSGSGAEFTLTISSLQPDDFATYYCQNVYLASTNGANFGQGTKLTVLGGGGGSGGGGSGGGGSGGGGSEVQLVESGGGLVQPGGSLRLSCTASGFSLTDYYYMTWVRQAPGKGLEWVGFIDPDDDPYYATWAKGRFTISRDTSKNTVYLQMNSLRAEDTAVYYCAGGDHNSGWGLDIWGQGTLVTVSS	-80

Query binder follows.
Prompt: Any idea what its signal change in competition ELISA (% reduction in OD) is? The binder is scFv105 (scFv) scFv: DIVMTQSPSSLSASVGDRVTLTCTASQSVSNDVVWYQQRPGKAPKLLIYSAFNRYTGVPSRFSGRGYGTDFTLTISSLQPEDVAVYYCQQDYNSPRTFGQGTKLEVKRGGGGSGGGGSGGGGSSGGGSQVQLVQSGAEVKKPGASVKVSCTASGYTFTHYGMNWVRQAPGKGLEWMGWINTYTGEPTYADKFKDRFTFSLETSASTVYMELTSLTSDDTAVYYCARERGDAMDYWGQGTLVTVSS
Completion: -59
